This collection of values is drawn from patent US10738056B2.

Biological target: Human cGAS amino acids 155-522 (Homo sapiens (Human), UniProt Q8N884)
Sequence (Q8N884 157-522): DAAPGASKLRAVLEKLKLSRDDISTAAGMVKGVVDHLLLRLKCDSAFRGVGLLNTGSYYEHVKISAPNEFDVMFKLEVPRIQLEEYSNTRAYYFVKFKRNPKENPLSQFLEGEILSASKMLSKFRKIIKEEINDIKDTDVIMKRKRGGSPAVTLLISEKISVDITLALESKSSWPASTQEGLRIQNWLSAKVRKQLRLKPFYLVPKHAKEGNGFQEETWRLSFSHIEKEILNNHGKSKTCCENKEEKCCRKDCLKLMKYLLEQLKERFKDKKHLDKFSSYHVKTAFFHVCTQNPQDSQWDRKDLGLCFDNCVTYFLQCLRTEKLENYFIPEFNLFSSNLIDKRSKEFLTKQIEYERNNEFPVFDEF
Experiment: cGAS biochemical activity assay (ATP remaining, Kinase-Glo Max luminescence)
Details: human cGAS 155-522, ATP remaining (Kinase-Glo Max); read-out: cGAS IC50
# Lookup of reported IC50 keyed by entry

{"Molecule": "Cc1[nH]c2c(-c3ccccc3)c(C(F)(F)F)nn2c(=O)c1-c1nnc(CC2CCN(C)CC2)o1", "IC50": "20 to 250 µM"}

input: What value of IC50 has been reported for the following molecule? "Cc1[nH]c2c(-c3ccccc3)c(C(F)(F)F)nn2c(=O)c1C(=O)Nc1ccccc1NS(C)(=O)=O"
output: < 20 µM

input: What value of IC50 has been reported for the following molecule? "Cc1[nH]c2c(-c3ccccc3)c(C(F)(F)F)nn2c(=O)c1-c1nc2c(OCc3ccccc3)cccc2o1"
output: < 20 µM

input: What value of IC50 has been reported for the following molecule? Cc1[nH]c2c(-c3ccccc3)c(C(F)(F)F)nn2c(=O)c1-c1nnc(C2COCCN2S(C)(=O)=O)o1 (stereo not shown)
output: < 20 µM

----------
# Lookup of reported IC50 keyed by entry
Target: Human cGAS amino acids 155-522 (Homo sapiens (Human))
Test: cGAS biochemical activity assay (ATP remaining, Kinase-Glo Max luminescence)
Conditions: human cGAS 155-522, ATP remaining (Kinase-Glo Max); read-out: cGAS IC50

Sample records with IC50:
{"Compound": "CN(Cc1ccccc1)C(=O)c1c[nH]c2c(-c3ccccc3)c(C(F)(F)F)nn2c1=O [Compound A1013]", "Quantity kind": "IC50", "Result": "> 250 µM"}
{"Compound": "Cc1[nH]c2c(-c3ccccc3)c(C(F)(F)F)nn2c(=O)c1-c1nnc(N2CCOCC2)o1 [Compound D1009]", "Quantity kind": "IC50", "Result": "20 to 250 µM"}
{"Compound": "COc1cccc2oc(-c3c(C)[nH]c4c(-c5cc(F)cc(F)c5)c(C(F)(F)F)nn4c3=O)nc12 [Compound C1119]", "Quantity kind": "IC50", "Result": "< 20 µM"}
{"Compound": "COc1ccc(F)cc1NC(=O)c1c(C)[nH]c2c(-c3ccccc3)c(C(F)(F)F)nn2c1=O [Compound A1071]", "Quantity kind": "IC50", "Result": "20 to 250 µM"}
{"Compound": "Cc1[nH]c2c(-c3ccccc3)c(C(F)(F)F)nn2c(=O)c1C(=O)Nc1cccc(OC2CCCC2)c1 [Compound A1082]", "Quantity kind": "IC50", "Result": "< 20 µM"}

input: What value of IC50 has been reported for the following compound? COc1cc(CN)cc2oc(-c3c(C)[nH]c4c(-c5ccccc5)c(C(F)(F)F)nn4c3=O)nc12 [Compound C1135]
output: < 20 µM

input: What value of IC50 has been reported for the following compound? COc1cccc2oc(-c3c(CS(C)(=O)=O)[nH]c4c(-c5ccccc5)c(C(F)(F)F)nn4c3=O)nc12 [Compound C1138]
output: < 20 µM

----------
Target: Human cGAS amino acids 155-522 (Homo sapiens (Human))
Test: cGAS biochemical activity assay (ATP remaining, Kinase-Glo Max luminescence)
Settings: human cGAS 155-522, ATP remaining (Kinase-Glo Max); read-out: cGAS IC50
# Lookup of reported IC50 keyed by entry

{"Compound": "CSc1cccc2oc(-c3c(C)[nH]c4c(-c5ccccc5)c(C(F)(F)F)nn4c3=O)nc12", "IC50": "< 20 µM"}
{"Compound": "Cc1ccc(NC(=O)c2c(C)[nH]c3c(-c4ccccc4)c(C(F)(F)F)nn3c2=O)cc1", "IC50": "20 to 250 µM"}
{"Compound": "COCCN(C)C(=O)c1[nH]c2c(-c3ccccc3)c(C(F)(F)F)nn2c(=O)c1-c1nc2c(OC)cccc2o1", "IC50": "20 to 250 µM"}
{"Compound": "Cc1[nH]c2c(-c3ccccc3)c(C(F)(F)F)nn2c(=O)c1C(=O)Nc1ccccc1N(C)C", "IC50": "20 to 250 µM"}
{"Compound": "Cc1[nH]c2c(-c3ccccc3)c(C(F)(F)F)nn2c(=O)c1-c1nc2c([S+](C)[O-])cccc2o1 (stereo not shown)", "IC50": "< 20 µM"}
{"Compound": "COc1cccc2oc(-c3c(N4CCCC(C(=O)O)C4)[nH]c4c(-c5ccccc5)c(C(F)(F)F)nn4c3=O)nc12 (stereo not shown)", "IC50": "< 20 µM"}

Turning to the following compound.
input: What value of IC50 has been reported for the following compound? "Cc1[nH]c2c(-c3ccccc3)c(C(F)(F)F)nn2c(=O)c1C(=O)Nc1ccccn1"
output: < 20 µM

----------
System: RANTES/CCL5 secretion by Trex1-KO BMM
Assay: Inhibition of RANTES/CCL5 secretion by Trex1-KO bone marrow-derived macrophages
Type: cell-based, mice
Conditions: Mus musculus, Macrophage, overnight, media without FBS, normalized to DMSO, read-out: RANTES/CCL5 IC50
Quantity kind: pIC50
Reminder that pIC50 means the negative base-10 logarithm of the concentration expressed in mol/L.

input: What value of pIC50 has been reported for the following molecule? COc1cccc2oc(-c3c(C#N)[nH]c4c(-c5ccccc5)c(C(F)(F)F)nn4c3=O)nc12 [Compound C1089]
output: 5.90

----------
Molecular target: Human cGAS amino acids 155-522 (Homo sapiens (Human))
Experiment: cGAS biochemical activity assay (ATP remaining, Kinase-Glo Max luminescence)
Conditions: human cGAS 155-522, ATP remaining (Kinase-Glo Max); read-out: cGAS IC50
pIC50: −log10 of the molar value.
# Lookup of reported pIC50 keyed by entry

Sample records with pIC50:
{"Molecule": "Cc1[nH]c2c(C(C)C)c(C(F)(F)F)nn2c(=O)c1-c1ccccc1 [Compound C1269]", "Result": "< 3.60"}
{"Molecule": "COc1cccc2nc(-c3c(C)[nH]c4c(-c5ccccc5)c(C(F)(F)F)nn4c3=O)[nH]c(=O)c12 [Compound C1024]", "Result": "> 4.70"}
{"Molecule": "Cc1nn2c(=O)c(-c3nnc(C4CCCOC4)o3)c(C)[nH]c2c1-c1ccccc1 (stereo not shown) [Compound D1030]", "Result": "> 4.70"}
{"Molecule": "COc1cccc2oc(-c3c(C)[nH]c4c(-c5ccccc5)c(C#CC5CC5)nn4c3=O)nc12 [Compound C1228]", "Result": "3.60 to 4.70"}
{"Molecule": "Cc1[nH]c2c(-c3ccccc3)c(C(F)(F)F)nn2c(=O)c1C1=N[C@H](C(=O)O)CO1 [Compound C1192]", "Result": "> 4.70"}

input: What value of pIC50 has been reported for the following molecule? Cc1[nH]c2c(-c3ccccc3)c(C(F)(F)F)nn2c(=O)c1-c1nc2c(=O)n(C)ccc2o1 [Compound C1106]
output: > 4.70

input: What value of pIC50 has been reported for the following molecule? Cc1[nH]c2c(-c3ccccc3)c(C(F)(F)F)nn2c(=O)c1-c1nnc(C2CCCCC2)o1 [Compound D1004]
output: > 4.70

----------
# Lookup of reported pIC50 keyed by entry
Tested on: cGAS/STING pathway in THP1 cells
Assay: THP1 cell-based cGAS/STING pathway activity assay (IRF-3-linked luciferase reporter)
Conditions: read-out: THP-1 IC50
pIC50: −log10 of the molar value.

{"Molecule": "CO[C@@H]1CCCC(c2nnc(-c3c(C)[nH]c4c(-c5ccccc5)c(C(F)(F)F)nn4c3=O)o2)C1 (stereo partly shown)", "Test target": "cGAS/STING pathway in THP1 cells", "pIC50": "< 4.00"}
{"Molecule": "CO[C@@H]1CCCC[C@H]1c1nnc(-c2c(C)[nH]c3c(-c4ccccc4)c(C(F)(F)F)nn3c2=O)o1", "Test target": "cGAS/STING pathway in THP1 cells", "pIC50": "< 4.00"}
{"Molecule": "CO[C@H]1CCCCC1c1nnc(-c2c(C)[nH]c3c(-c4ccccc4)c(C(F)(F)F)nn3c2=O)o1 (stereo partly shown)", "Test target": "cGAS/STING pathway in THP1 cells", "pIC50": "> 4.70"}

Turning to the following molecule.
input: What value of pIC50 has been reported for the following molecule? CO[C@@H]1CCCC1c1nnc(-c2c(C)[nH]c3c(-c4ccccc4)c(C(F)(F)F)nn3c2=O)o1 (stereo partly shown)
output: < 4.00

----------
Biological target: Human cGAS amino acids 155-522 (Homo sapiens (Human))
Test: cGAS biochemical activity assay (ATP remaining, Kinase-Glo Max luminescence)
Details: human cGAS 155-522, ATP remaining (Kinase-Glo Max); read-out: cGAS IC50
Quantity kind: IC50

Sample records with IC50:
{"Compound": "Cc1[nH]c2c(-c3ccccc3)c(C(F)(F)F)nn2c(=O)c1C(=O)Nc1cccc(OC(F)(F)F)c1", "Result": "20 to 250 µM"}
{"Compound": "CC(=O)N1CCCC(c2nnc(-c3c(C)[nH]c4c(-c5ccccc5)c(C(F)(F)F)nn4c3=O)o2)C1 (stereo not shown)", "Result": "20 to 250 µM"}
{"Compound": "COc1cccc2oc(-c3c(C4CC(C(=O)O)C4)[nH]c4c(-c5ccccc5)c(C(F)(F)F)nn4c3=O)nc12 (stereo not shown)", "Result": "< 20 µM"}
{"Compound": "Cc1[nH]c2c(-c3ccccc3)c(C(F)(F)F)nn2c(=O)c1-c1nnc(C2CCNCC2)o1", "Result": "20 to 250 µM"}

input: What value of IC50 has been reported for the following compound? "Cc1[nH]c2c(-c3ccccc3)c(C(F)(F)F)nn2c(=O)c1C(=O)Nc1cccc(N)c1"
output: < 20 µM

input: What value of IC50 has been reported for the following compound? "Cc1[nH]c2c(-c3ccccc3)c(C(F)(F)F)nn2c(=O)c1-c1nc2c(OCCNS(C)(=O)=O)cccc2o1"
output: < 20 µM

input: What value of IC50 has been reported for the following compound? "Cc1[nH]c2c(-c3ccccc3)c(C(F)(F)F)nn2c(=O)c1-c1nc2c(C#N)cccc2o1"
output: < 20 µM
